Molecular target: G-protein coupled bile acid receptor 1 (Homo sapiens, UniProt Q8TDU6)
Sequence (Q8TDU6 whole entry): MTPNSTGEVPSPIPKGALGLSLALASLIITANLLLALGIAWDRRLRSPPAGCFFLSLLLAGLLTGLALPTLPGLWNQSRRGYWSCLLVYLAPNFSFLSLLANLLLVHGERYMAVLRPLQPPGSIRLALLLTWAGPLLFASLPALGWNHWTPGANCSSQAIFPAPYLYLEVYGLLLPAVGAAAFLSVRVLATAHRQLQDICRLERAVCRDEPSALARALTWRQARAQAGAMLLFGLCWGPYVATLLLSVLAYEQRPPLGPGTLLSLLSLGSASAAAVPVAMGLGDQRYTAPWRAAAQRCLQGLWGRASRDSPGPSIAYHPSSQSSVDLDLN
Experiment: Transactivation of human GP-BAR1 transfected in HEK293T cells assessed as induction of intracellular cAMP production after 18 hrs by cAMP responsive element containing luciferase reporter gene assay
READOUT KIND: EC50 (nM)
Dear colleague, please return just the value in nM, with no unit written.

**Q:** Would you kindly share the measured EC50 for CC[C@H]1[C@@H](O)[C@@H]2[C@H](CC[C@]3(C)[C@@H]([C@H](C)CCCOS(=O)(=O)O)CC[C@@H]23)[C@@]2(C)CC[C@@H](O)C[C@@H]12 ?
**A:** 200

###

Target: Bile acid receptor (Homo sapiens)
Sequence (Q96RI1 whole entry): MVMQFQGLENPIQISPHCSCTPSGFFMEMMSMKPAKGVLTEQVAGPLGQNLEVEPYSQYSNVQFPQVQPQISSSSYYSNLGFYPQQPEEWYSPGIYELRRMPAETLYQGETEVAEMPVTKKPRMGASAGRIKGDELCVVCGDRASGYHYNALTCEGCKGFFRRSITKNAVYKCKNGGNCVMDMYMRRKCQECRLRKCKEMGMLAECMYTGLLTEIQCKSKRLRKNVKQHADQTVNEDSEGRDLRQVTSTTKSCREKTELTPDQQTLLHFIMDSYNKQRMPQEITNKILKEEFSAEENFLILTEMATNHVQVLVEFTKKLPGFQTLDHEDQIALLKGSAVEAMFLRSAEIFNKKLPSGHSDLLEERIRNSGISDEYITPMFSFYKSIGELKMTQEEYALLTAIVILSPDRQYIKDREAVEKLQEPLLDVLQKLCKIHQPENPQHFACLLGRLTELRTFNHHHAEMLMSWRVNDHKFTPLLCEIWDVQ
Test: Transactivation of human FXR transfected in human HepG2 cells by beta-galactosidase reporter gene assay
READOUT KIND: pEC50
Please express pEC50 as -log10 of the molar concentration.

**Q:** Using the record for CC[C@H]1[C@@H](O)[C@@H]2[C@H](CC[C@]3(C)[C@@H]([C@H](C)CCCOS(=O)(=O)O)CC[C@@H]23)[C@@]2(C)CC[C@@H](O)C[C@@H]12 , report its pEC50.
**A:** 6.00

###

Tested on: HEK-293T
Experiment: Induction of cAMP production in GP-BAR1-deficient HEK293T cells at 10 uM by cAMP responsive element containing luciferase reporter gene assay
Format: functional, cell-based
Conditions: Homo sapiens
Calls of active or inactive are those of the source. The rule behind the calls is not given here.
Choose the fitting class; nothing outside True for active, False for inactive is accepted.

SMILES RECORD	GROUP
C[C@H](CCCCCOS(=O)(=O)O)[C@H]1CC[C@H]2[C@@H]3[C@H](O)C[C@@H]4C[C@H](O)CC[C@]4(C)[C@H]3CC[C@]12C	False
CC[C@H]1[C@@H](O)[C@@H]2[C@H](CC[C@]3(C)[C@@H]([C@H](C)CCC(=O)O)CC[C@@H]23)[C@@]2(C)CC[C@@H](O)C[C@@H]12	False
CC[C@H]1[C@@H](O)[C@@H]2[C@H](CC[C@]3(C)[C@@H]([C@H](C)CCOS(=O)(=O)O)CC[C@@H]23)[C@@]2(C)CC[C@@H](O)C[C@@H]12	False

**Q:** Recorded test call requested for C[C@H](CCCOS(=O)(=O)O)[C@H]1CC[C@H]2[C@@H]3[C@@H](OS(=O)(=O)O)C[C@@H]4C[C@H](OS(=O)(=O)O)CC[C@]4(C)[C@H]3CC[C@]12C
**A:** False

###

System: HEK-293T
Assay: Induction of cAMP production in GP-BAR1-deficient HEK293T cells at 10 uM by cAMP responsive element containing luciferase reporter gene assay
Type: functional, cell-based
Details: Homo sapiens
The source made the active and inactive calls. No cut-off for these calls is given here.
Answer with one of the outcomes given here: Yes = active, No = inactive

// known answers, use as guide
SMILES RECORD	GROUP
C[C@H](CCCOS(=O)(=O)O)[C@H]1CC[C@H]2[C@@H]3[C@H](OS(=O)(=O)O)C[C@@H]4C[C@H](OS(=O)(=O)O)CC[C@]4(C)[C@H]3CC[C@]12C	No
C[C@H](CCC(=O)O)[C@H]1CC[C@H]2[C@@H]3[C@H](O)C[C@@H]4C[C@H](O)CC[C@]4(C)[C@H]3CC[C@]12C	No
CC[C@H]1[C@@H](O)[C@@H]2[C@H](CC[C@]3(C)[C@@H]([C@H](C)CCCOS(=O)(=O)O)CC[C@@H]23)[C@@]2(C)CC[C@@H](O)C[C@@H]12	No
C[C@H](CCCCCOS(=O)(=O)O)[C@H]1CC[C@H]2[C@@H]3[C@H](OS(=O)(=O)O)C[C@@H]4C[C@H](OS(=O)(=O)O)CC[C@]4(C)[C@H]3CC[C@]12C	No
CC[C@H]1[C@@H](OS(=O)(=O)O)[C@@H]2[C@H](CC[C@]3(C)[C@@H]([C@H](C)CCOS(=O)(=O)O)CC[C@@H]23)[C@@]2(C)CC[C@@H](OS(=O)(=O)O)C[C@@H]12	No
CC[C@H]1[C@@H](OS(=O)(=O)O)[C@@H]2[C@H](CC[C@]3(C)[C@@H]([C@H](C)CCCOS(=O)(=O)O)CC[C@@H]23)[C@@]2(C)CC[C@@H](OS(=O)(=O)O)C[C@@H]12	No

**Q:** Check the results log: what was the call for C=C[C@@]1(C)CC(=O)[C@]2(O)[C@@]3(C)[C@@H](O)CCC(C)(C)[C@@H]3[C@H](O)[C@H](OC(C)=O)[C@@]2(C)O1 ?
**A:** Yes

**Q:** Outcome? C[C@H](CCCOS(=O)(=O)O)[C@H]1CC[C@H]2[C@@H]3[C@@H](O)C[C@@H]4C[C@H](O)CC[C@]4(C)[C@H]3CC[C@]12C
**A:** No
